# PROTOCOL_SUMMARY: label from the status in PepcDB records
OBSERVED_PROPERTY: protein production

1. MSEWMKKSPLEWEDYVYKEVRVIACEKEYKGWLLTTDPVSANIVLVNFLEDGRLSVTGIMGHSVQTVETISEGDHRVREKLMHVFASGDCKGYSPEDLEEKRTSLKKWLEKNHIPVTEQGDAQRTLCVAGVLTIDPPYAPENCSSSNEIILSRIQDLIQGHLSASQ    failed
2. MIISNKSPISINNDPWEAYNDILEHNQLTLSNIEFTTTNLCNMRCSHCAVGYTLQTKDPDPLPMDIIYRRLDEIPNLRTLSITGGEPMFSKKSIKNVVKPLLKYAKHRGIYVQMNSNLTLPQDRYLDIAEY    failed
3. MARKVILFIAMSIDNYIADDQGAVDWLEKNVHGTESDDSYEKMYSKIDTVIMGRTTYEQVTQKLSPEKYVYADRQTYIVTSHLGEDTDKIKYWKQSPVELVKRIQKEKGKDVWIVGGAKLIDPLVQANLIDTYILTTVPIFLGSGIRLFDRLEEQVPVRLIDVYQKNELVYSIYQRG    not failed
4. MIIGLLNQKGGVGKTTLSVNLAASFARTGARVLLIDVDPQGSALDWAAAREGAPLFPVVGLPRATVHKEITQIGHNYDHIIIDGPPRVTDLARSALMASDFVLIPVQPSPYDIWAADGIVKLIDEARVYKENLKSAFVINRKIVNTAIGRDVGEALGVYPVHVLSANVAQRVIFAEAATQGKTVYEVDKQGLAAAEIEAVAAEIKELAQLEHHHHHH    not failed

###

# PROTOCOL_SUMMARY: label from the status in PepcDB records
OBSERVED_PROPERTY: protein production

1. MAPRYDTLFYDGSCPLCAREIRTLRRLQTGNLIFADIHEQNPSNQQLPSREQLLRRLHLMSWNGEWVTGLHANVRAWSHTRFGWLFKPLLWPVIHPIASRIYETWADKRYGRKYACAMGHENSCPPGT    failed
2. MTKFYKFLISIIILALVCLIFFLAKSNILNLDSLKNLILSSGYFAPLIYIIAFALVPLTFFPDSVLAILGGSIFGLGGGFLYTSIGALIGGSISFFISRILGQSFVEKFENDKLKNIQELLKDNGFLMILLLRLIPLFPFDLISYGAGLTKISYKDFALGTLIGTIPGILVFVNLGAQWITFNKTSIYLSVSLLILFIIVSVFLKKIYINKHLAKEN    failed

###

# PROTOCOL_SUMMARY: label from the status in PepcDB records
OBSERVED_PROPERTY: protein production

1. MHSIRNFFCGQWSSSVRLDEKTVIITGANTGIGKETARDLARRGARVVMACRDLEKAEAARRELMDNSGNQNIVVKKLDLADTKSIKAFAELINKEEKQVNILINNAGIMMCPYSKTADGFEMQFGVNHLGHFLLIYLLLDLLKKSTPSRIVNVASVAHTWSGIHLEDINSEKVYSPRRAYGQSKLANILCTRSLAKRLQGSGVNVYSLHPGVVQSELFRNLSKPAQIAFKVFSPFTKTTSQGAQTTIYCAIEPELDRESGGYYSDCGPAQCSREASDDEMAQKLWELSCQMLGIIWD    failed
2. MPKVSVVTGFYNRCEHLERTIESILNQTYSDFELIVFDDASTDGTASRLLELKEKYDDPRFRFIIHEENKGFVKGLSEAISGAKGQYIAVQGSGDVSLPRRLELQVEFLDANPSVGAVGGAIYNIQEDTGTRNPQRFEKPIATFDDLLTSNPFTHGEVMYRLDLYKSIGGYRSGFTFAQDRDLWLRMAKKADLGIIPDFLYHRYTLLDGVSFVPDKTIRQRCFSEAAVRLALMPEEEGALAYSRLEAEGPTAVVPIADRAVQKFVPKAAIRLCLYGAPETGLHMARDYIQNPLRRTIVVVLISIYSSRLIKPLQDILYKSIFKGVSISKPIKSSLVKFTRRIQGK    failed
3. MSLKLYGFSVSNYYNMVKLALLEKGLTFEEVTFYGGQAPQALEVSPRGKVPVLETEHGFLSETSVILDYIEQTQGGKALLPADPFGQAKVRELLKEIELYIELPARTCYAESFFGMSVEPLIKEKARADLLAGFATLKRNGRFAPYVAGEQLTLADLMFCFSVDLANAVGKKVLNIDFLADFPQAKALLQLMGENPHMPRILADKEASMPAFMEMIRSGKREGHHHHHH    not failed
4. KEMKQIQNEFKERMDEGELLNCMRCGFCLPSCPTYIESGFQETHSPRGRIALMKAVADGMIEPDEDVERSLSLCLGCRACEPVCPSGVKYGQLLEEARDIIHQNKKHSLGE    failed
5. MPAERDSSAAWAVCVYCASGPQHPELLGVAAELGEAIAERGWTLVWGGGRVSAMGAVASAARARGGRTVGVIPTVLMRREIADADADELIVSDTLHERKQIMEDRADAFIALPGGIGTLDEVLDAWTTGFLGLHAKPIVLLDPIGHYEGLWLWLSGLLDSGYITQAAMDRVVLVDKVGAALEACAPG    failed
6. MFESLGFEETTAKEISVLLGLSLGVLFGLLAERTRFCFRRAVVGEDARQAAGVWFTALAVAILGTQASVASGLIGFADHRLLSSDLPVLAVVLGGLMFGAGMVLTRGCISRLTVLGGTGNLRALTVLLVFAVVAHAMLKGVLAPLRTSLGAVTVDLGETVSLAALPGGAALWTALLALASLLIAARSGNRALPLLGAALIGLLVPLGWVGTGYVLFDEFDPITMESLSFTAPAADTLFYTIASTSIAPGFGTGLVGGVLLGALAAALLFGSFRWQSFDSPRQTGRYLAGATLMGMGGVLAGGCTLGAGLAGIPTLSLAALLALTAIALGARLTDAALNAASSGSAGYPATPGQQPAE    failed
7. EIKIGITMSASGPGAALGQPQSKTVAALPKEIGGEKVTYFALDDESDPTKAAQNARKLLSEEKVDVLIGSSLTPVSLPLIDIAAEAKTPLMTMAAAAILVAPMDERRKWVYKVVPNDDIMAEAIGKYIAKTGAKKVGYIGFSDAYGEGYYKVLAAAAPKLGFELTTHEVYARSDASVTGQVLKIIATKPDAVFIASAGTPAVLPQKALRERGFKGAIYQTHGVATEEFIKLGGKDVEGAIFAGEAFSGAEDMPADSPFRKVKARFVDAYKAANGGAAPTIFGVHLWDSMTLVENAIPAALKAAKPGTPEFRAAIRDQIEKSKDLALNNGLSNMTPDNHNGYDERSAFLIEIRDGAFRLKQ    not failed
8. MTVKAVFFDIDGTLLNDRKNIQKTTQKAIQQLKKQGIMVGLATGRGPGFVQPFLENFGLDFAVTYNGQYILTRDKVLYQNQLPKSMIYKVIRYANEKKREISLGTASGLAGSRIIDMGTSPFGQVISSFVPKSWARTVEGSFKHLIRRIKPQSFRNLVTIMREPIYQVVLVASQAETKKIQEKFPHIKITRSSPYSLDLISVDQSKIKGIERLGEMFGFDLSEVMAFGDSDNDLEMLSGVGIGIAMGNAETVVKDGAHFTTDSNNNDGISKALAHYGLIH    failed
9. MVVAPYLAVAIGGSLGAMSRYLVTIMAQNAWGIKFPYGTLLVNTLGSFLAGFFLIVLVGRFSAEESFRLFLFTGFLGAFTTFSSFAAESLFMFEQGYWFKLMTNILVNNVGSLSMVFIGTLVAKYVLLGHQGSN    failed
10. MAFDLQEQEQIDSLKAFWQQWGKLIGGAVLAVSLGYLGYKAYGMYQRGQSEKAAAAYEAVDDAVAAKDIAKLKSAAQQLQGEYAGTLYASRAALVLAKAAFDKNDPALAASQLEWVLKNGKDEELQAIARLRLASLLLDQKKFDGAIGELNQAHPAAFDAEFLELKGDVFVAKGDSNGARDAYKAALAKMQGESPNRQLVQTKLDALGG    failed
11. MAAGKRDYYEVLGISKNASSQDIKRAFRKLAMQYHPDRHKAENETTQKQNEEKFKEVNEAYEVLSDEEKRKLYDQFGHEGLNASGFHEAGFNPFDIFNSVFGEGFSFGMDGDSPFDFIFNRSKKRQQQIVVPYNLDIALVIEINFFEMTNGCNKTIKYERKVSCHSCNGFGAEGGESGLDLCKDCNGNGFVIKNQRSIFGTIQSQVLCSTCNGQGKQIKVKCKTCRSNKYTVTNQIKEINIPAGMYSGEALVDESGGNEFKGHYGKLIIQVNVLASKIFKRSDNNVIANVLVDPMVAIVGGVIELPTLEGIKEFNIRPGTKSGEQIVIPNGGIKFSKSFKRKAGDLIIIISYARPCEYTNLELKKLREFIKPNQEVKQYLNTLKNEYKT    failed

###

# PROTOCOL_SUMMARY: label from the status in PepcDB records
OBSERVED_PROPERTY: protein production

1) MGSSHHHHHHSSGRENLYFQGSQRPVDRNPPRINLMPTGANRVAMRNRGNNEADAALQALAQNGINMEDLRAALEAYIVWLRPIPLDIANALEGVGITPRFDNPEEAKVDNPLMNLSSALKRRLDA    not failed
2) MLSAVRRANLYLNLFGFSKVPLIWLCHPKIIAIDSKHVEVRIPLRRRTKNHLNSMYFGALAVGADVAGGFLAMSKAQEKGEAISLAFKGVKAEFLKRPEADVHFVCNDGHVIDEMLDHTIATGERVNRDVKIIALCPSLHGQEPMAEFALTLSIKKAAQHTKLEHHHHHH    not failed
3) MPNMGIEKLYVSQQLTDSAAGMTFTKPQYYKYVQELSLKPKVNSASAYAENRKVDQDTQFDSCDVSINLFQMTSSQRAFMLGQSLAGGGGAIGALNDKAPWITLLYKAPIKVDDTIYYRYGVIYKTQFQPPDDDYKTTEGKPDFSQVPKISGSAQPTEWSFKDGKLEKHPWEWHVDTCDPNCPENIDDTWFNSVSIPSLVTYGSLSLSASSPKDGATGISLDTKPSLTFNNPIMNATSILLYNVSDGATVNTTTSSDSSGKIITITPSTNLVANKNYVLVVQDVTDLYGQTLDTQLIRFTTATAASLEHHHHHH    not failed

Every entry's value here was drawn from a protein production outcome set (Wang et al. 2014).
